subject of test: Tyrosyl-tRNA synthetase, putative (Trypanosoma cruzi (strain CL Brener)) (UniProt Q4DSP6)
Sequence (Q4DSP6 as listed by the source): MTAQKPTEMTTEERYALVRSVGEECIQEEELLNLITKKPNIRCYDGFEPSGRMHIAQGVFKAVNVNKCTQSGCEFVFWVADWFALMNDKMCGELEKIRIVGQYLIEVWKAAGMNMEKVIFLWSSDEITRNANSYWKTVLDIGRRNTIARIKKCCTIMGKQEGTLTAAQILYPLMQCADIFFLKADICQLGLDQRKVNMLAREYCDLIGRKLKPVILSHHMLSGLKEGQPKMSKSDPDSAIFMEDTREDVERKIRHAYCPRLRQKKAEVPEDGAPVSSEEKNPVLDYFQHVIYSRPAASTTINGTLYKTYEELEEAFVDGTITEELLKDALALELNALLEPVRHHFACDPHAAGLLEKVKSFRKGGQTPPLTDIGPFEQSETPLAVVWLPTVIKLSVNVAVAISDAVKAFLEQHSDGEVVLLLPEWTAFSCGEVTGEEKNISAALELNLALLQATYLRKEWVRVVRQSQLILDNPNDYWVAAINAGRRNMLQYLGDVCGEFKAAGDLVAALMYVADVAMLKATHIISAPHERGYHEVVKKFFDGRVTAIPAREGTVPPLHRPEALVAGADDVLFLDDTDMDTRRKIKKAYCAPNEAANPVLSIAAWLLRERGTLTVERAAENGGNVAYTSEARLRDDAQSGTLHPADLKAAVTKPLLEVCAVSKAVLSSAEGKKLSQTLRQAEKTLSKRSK
assay explanation: Trypanosoma cruzi tyrosyl tRNA synthetase (TcYRS) SOP
Assay type: functional
Set-up: scale not given: direction of the effect not stated beside the values
measurement conditions: 30 µM
Catalogue of compounds with associated Percent Effect
Report only the number, with the unit % understood.

compound | subject of test | observed measurement
CCn1cc(C(=O)N2CCCC(c3[nH]ncc3S(C)(=O)=O)C2)cn1 (stereo unspecified) | Tyrosyl-tRNA synthetase, putative (Trypanosoma cruzi (strain CL Brener)) (UniProt Q4DSP6) | 20
O=C(CS(=O)(=O)c1ccccc1Cl)NC1CCCCNC1=O (stereo unspecified) | Tyrosyl-tRNA synthetase, putative (Trypanosoma cruzi (strain CL Brener)) (UniProt Q4DSP6) | 14.6
COCC1CN(Cc2ccsc2)Cc2nn(C)cc21 (stereo unspecified) | Tyrosyl-tRNA synthetase, putative (Trypanosoma cruzi (strain CL Brener)) (UniProt Q4DSP6) | 0
Cc1ccccc1-c1cc(C(=O)NCCN2CCCS2(=O)=O)[nH]n1 | Tyrosyl-tRNA synthetase, putative (Trypanosoma cruzi (strain CL Brener)) (UniProt Q4DSP6) | 20.5
CN(C)S(=O)(=O)N1CC[C@]2(C[C@H](Oc3cccnc3)CO2)C1 | Tyrosyl-tRNA synthetase, putative (Trypanosoma cruzi (strain CL Brener)) (UniProt Q4DSP6) | 15.4

Okay, next one:
Task: Item CCn1cc(CN(C)C(=O)c2cccc(CCC(C)(C)O)c2)cn1 has what recorded Percent Effect?
Result: 6.17
